Parameter 'readout' = pIC50; parameter 'system' = Prostaglandin G/H synthase 1 (Homo sapiens, UniProt P23219).
Sequence (P23219 whole entry): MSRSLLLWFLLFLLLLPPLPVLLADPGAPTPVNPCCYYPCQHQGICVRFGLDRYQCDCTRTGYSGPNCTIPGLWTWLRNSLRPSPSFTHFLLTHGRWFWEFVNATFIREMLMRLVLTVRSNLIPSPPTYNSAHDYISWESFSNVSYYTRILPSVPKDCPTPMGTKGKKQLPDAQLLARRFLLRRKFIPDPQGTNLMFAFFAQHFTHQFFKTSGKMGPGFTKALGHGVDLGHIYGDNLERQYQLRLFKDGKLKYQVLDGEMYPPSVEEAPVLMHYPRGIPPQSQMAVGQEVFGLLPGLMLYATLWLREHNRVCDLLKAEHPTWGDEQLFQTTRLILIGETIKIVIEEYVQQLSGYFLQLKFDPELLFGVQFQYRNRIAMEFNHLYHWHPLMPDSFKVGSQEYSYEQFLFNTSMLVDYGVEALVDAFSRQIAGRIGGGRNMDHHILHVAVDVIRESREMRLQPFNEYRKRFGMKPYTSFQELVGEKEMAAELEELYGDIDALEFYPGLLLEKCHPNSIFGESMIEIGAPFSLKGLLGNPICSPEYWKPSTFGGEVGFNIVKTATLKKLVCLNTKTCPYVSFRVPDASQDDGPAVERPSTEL
Bear in mind: pIC50 is minus log10 of a mol/L concentration; give just that figure.

Below, 5 compounds whose answers are already recorded.
INSERT INTO results (compound, result) VALUES
  ('NS(=O)(=O)c1ccc(N2N=C(C(F)(F)F)CC2c2cccc3ccccc23)cc1 (stereo not given)', 4.77),
  ('CS(=O)(=O)c1ccc(N2N=C(C(F)(F)F)CC2c2cccc3c2OCO3)cc1 (stereo not given)', 4.97),
  ('CS(=O)(=O)c1ccc(N2N=C(C(F)(F)F)CC2c2cccc3c2OCCO3)cc1 (stereo not given)', 4.39),
  ('NS(=O)(=O)c1ccc(N2N=C(C(F)(F)F)CC2c2cccc3c2OCO3)cc1 (stereo not given)', 5.00),
  ('O=S(=O)(c1ccccc1)N1N=C(C(F)(F)F)CC1c1ccc2c(c1)OCO2 (stereo not given)', 4.85);

Returns the measured pIC50 for the input compound. Input: O=S(=O)(c1ccccc1)N1N=C(C(F)(F)F)CC1c1cccc2c1OCO2 (stereo not given)
5.06

Returns the measured pIC50 for the input compound. Input: Cc1ccc(S(=O)(=O)N2N=C(C(F)(F)F)CC2c2ccc3c(c2)OCO3)cc1 (stereo not given)
5.43

Returns the measured pIC50 for the input compound. Input: O=S(=O)(c1ccccc1)N1N=C(C(F)(F)F)CC1c1cccc2c1OCCO2 (stereo not given)
4.00

Returns the measured pIC50 for the input compound. Input: O=S(=O)(c1ccccc1)N1N=C(C(F)(F)F)CC1c1ccc2c(c1)OCCO2 (stereo not given)
3.98

----------
Measured Ratio IC50, listed per entry for reference.
Organism: Homo sapiens
Assay: Selectivity index, ratio of IC50 for COX1 (unknown origin) to IC50 for COX2 (unknown origin)
# output: bare number, no unit

Below, 3 molecules whose answers are already recorded.
INSERT INTO measurements (molecule, result) VALUES
  ('Cc1ccc(S(=O)(=O)N2N=C(C(F)(F)F)CC2c2ccc3c(c2)OCCO3)cc1 (stereo not given)', 3.5),
  ('O=S(=O)(c1ccccc1)N1N=C(C(F)(F)F)CC1c1cccc2ccccc12 (stereo not given)', 0.26),
  ('Cc1ccc(S(=O)(=O)N2N=C(C(F)(F)F)CC2c2ccc3ccccc3c2)cc1 (stereo not given)', 10.7);

# input for lookup
Returns the measured Ratio IC50 for the input molecule. Input: Cc1ccc(S(=O)(=O)N2N=C(C(F)(F)F)CC2c2ccc3c(c2)OCO3)cc1 (stereo not given)
7

----------
Organism: Homo sapiens
Assay: Selectivity index, ratio of IC50 for COX1 (unknown origin) to IC50 for COX2 (unknown origin)
Measured Ratio IC50, listed per entry for reference.
# output: bare number, no unit

Returns the measured Ratio IC50 for the input molecule. Input: Cc1ccc(S(=O)(=O)N2N=C(C(F)(F)F)CC2c2cccc3c2OCCO3)cc1 (stereo not given)
0.01

Returns the measured Ratio IC50 for the input molecule. Input: O=S(=O)(c1ccccc1)N1N=C(C(F)(F)F)CC1c1ccc2c(c1)OCO2 (stereo not given)
2.5

Returns the measured Ratio IC50 for the input molecule. Input: CS(=O)(=O)c1ccc(N2N=C(C(F)(F)F)CC2c2ccc3c(c2)OCCO3)cc1 (stereo not given)
270

Returns the measured Ratio IC50 for the input molecule. Input: O=S(=O)(c1ccccc1)N1N=C(C(F)(F)F)CC1c1cccc2c1OCO2 (stereo not given)
0.14
